Every entry's value here was drawn from patent US20240400521A1.

experiment description: Pharmacokinetics in SD rats after single oral and intravenous administration
Type: in vivo
settings: SD, plasma; rat, PO 10 mg/kg, time point 4 hr; read-out: Plasma drug concentration
Protocol: In this assay, the pharmacokinetic characteristics and ability to penetrate the blood-brain barrier of the compounds of the present application were assayed after administration of some of the compounds of the present application to SD rats by single oral administration and intravenous injection. • 1. […] Brains were weighed and homogenized by adding 4-fold homogenizing solution (acetonitrile/water=1/1). […] The supernatant was diluted 2-fold with ultra-pure water, and the samples were analyzed by LC/MS. […]
readout name: concentration at 4 hr (ng/mL)
Response body: numeric value in ng/mL, unit text excluded.

Ask | So what's the measured concentration at 4 hr for this one? COc1c(NC(=O)/C=C/CN(C)C)ccc2ncnc(Nc3cccc(Cl)c3F)c12
Reply | 77.7

---

experiment description: Pharmacokinetics in SD rats after single oral and intravenous administration
Format: in vivo
settings: SD, plasma; rat, IV 3 mg/kg
Method: In this assay, the pharmacokinetic characteristics and ability to penetrate the blood-brain barrier of the compounds of the present application were assayed after administration of some of the compounds of the present application to SD rats by single oral administration and intravenous injection. • 1. […] Brains were weighed and homogenized by adding 4-fold homogenizing solution (acetonitrile/water=1/1). […] The supernatant was diluted 2-fold with ultra-pure water, and the samples were analyzed by LC/MS. […]
readout name: AUC(0-t) (ng·h/mL)
Response body: numeric value in ng·h/mL, unit text excluded.

Ask | So what's the measured AUC(0-t) for this one? COc1c(NC(=O)/C=C/CN(C)C)ccc2ncnc(Nc3cccc(Cl)c3F)c12
Reply | 709
